# Species: Homo sapiens
# PROTOCOL: To identify inhibition of the IFN signalling (Jak-Stat) pathway via expression of an eGFP reporter gene under the control of an IFN-stimulated response element (ISRE) containing MxA promoter.
# Assay type: functional
# Design: scale not given: direction of the effect not stated beside the values
# CONDITION CONTEXT: 30 µM
Listed molecules paired with reported Percent Effect

{"MOLECULE": "CCc1cnc(CN(C)C2CCN(CCc3ccccn3)C2)o1 (configuration not stated)", "Percent Effect (%)": 0.763}
{"MOLECULE": "CC(C)NC(=O)[C@@H]1C[C@H](N)CN1C(=O)c1cc2ccccc2[nH]c1=O", "Percent Effect (%)": -0.74}
{"MOLECULE": "CCOCc1ncn2c1CN(C(=O)Nc1cccc(C)c1)CC2", "Percent Effect (%)": 2.31}
{"MOLECULE": "COc1ccc(C(CNC(=O)Nc2cn[nH]c2)N2CCOCC2)cc1 (configuration not stated)", "Percent Effect (%)": -2.67}
{"MOLECULE": "CN(Cc1ncc(-c2ccccc2)o1)CC1CCCN1c1cccnn1 (configuration not stated)", "Percent Effect (%)": -9.54}
{"MOLECULE": "CCn1c(C)nnc1CN(C)C1CCN(CCc2ccncc2)C1 (configuration not stated)", "Percent Effect (%)": 13.3}
{"MOLECULE": "Cc1nc(C2CCCN2Cc2nc(C)c(C)o2)no1 (configuration not stated)", "Percent Effect (%)": -3.4}
{"MOLECULE": "CC(C)(C)c1nc(CN2CCCC(Cn3cncn3)C2)cs1 (configuration not stated)", "Percent Effect (%)": 3.9}
{"MOLECULE": "CCC1=N[C@@]2(CC[C@@H]3CN(S(=O)(=O)N(C)C)C[C@@H]32)C(=O)N1CC(C)C", "Percent Effect (%)": -7.21}
{"MOLECULE": "NC(=O)C(CNC(=O)COCC(F)(F)F)Cc1ccc(F)cc1 (configuration not stated)", "Percent Effect (%)": -19.6}
{"MOLECULE": "Cc1ccc(-c2nc(CNC3CCc4ncnn4C3)co2)c(C)c1 (configuration not stated)", "Percent Effect (%)": 9.71}
{"MOLECULE": "CCn1cc2c(n1)CN(CC1CC1)CC2COCC1CC1 (configuration not stated)", "Percent Effect (%)": -20.4}
{"MOLECULE": "CC(C)COCC1CN(Cc2ccc3c(c2)OCO3)Cc2ncn(C)c21 (configuration not stated)", "Percent Effect (%)": 29.9}
{"MOLECULE": "Cn1cc(N2CC3(CCN(S(=O)(=O)C4CC4)C3)CC2=O)cn1 (configuration not stated)", "Percent Effect (%)": -1.37}
{"MOLECULE": "CC(C)c1noc(CN(Cc2ccccc2F)C2CC2)n1", "Percent Effect (%)": 10.9}
{"MOLECULE": "CC1CCCN(CCNC(=O)c2cncnc2C(C)C)C1 (configuration not stated)", "Percent Effect (%)": -15.9}
{"MOLECULE": "COc1ccc(C(=O)NCC(c2cccn2C)N2CCCC2)c(OC)c1 (configuration not stated)", "Percent Effect (%)": -21.8}
{"MOLECULE": "Cc1noc(C)c1C1CCCN1C(=O)CN1CC2(CCNCC2)OC1=O (configuration not stated)", "Percent Effect (%)": -4.21}
{"MOLECULE": "O=C(O)[C@]12CCCN(Cc3ccccc3)C[C@H]1CN(c1ncccn1)C2", "Percent Effect (%)": -24.8}
{"MOLECULE": "CN(Cc1ccco1)C[C@H]1OC[C@@H]2CCN(Cc3nccs3)C[C@@H]21", "Percent Effect (%)": 7.21}
{"MOLECULE": "O=C(C1CCCC1)N1CCN(Cc2nc(-c3ccco3)no2)CC1", "Percent Effect (%)": 19.1}
{"MOLECULE": "O=C(N1CCOCC1)[C@@]12CCO[C@@H]1CCN(CC1CCCCC1)C2", "Percent Effect (%)": 12.3}
{"MOLECULE": "Cc1ccc(NC2CCN(C(=O)Cc3ccc(C#N)cc3)CC2)nn1", "Percent Effect (%)": -19.9}
{"MOLECULE": "O=S(=O)(Cc1ccccc1)N1CCCn2cnc(CN3CCCC3)c2C1", "Percent Effect (%)": -10}
{"MOLECULE": "Cc1ccccc1C(=O)NCc1ccc(N2CCNC(=O)C2)cc1", "Percent Effect (%)": -13.4}
{"MOLECULE": "Cc1ccccc1C1(CNc2nnc(C)c(C)c2C#N)CCOCC1", "Percent Effect (%)": 19.4}
{"MOLECULE": "CCc1noc(CN2CCCC2c2noc(C3CC3)n2)n1 (configuration not stated)", "Percent Effect (%)": 19.7}
{"MOLECULE": "Cc1cc(C[C@@H]2CCC[C@H]2NCc2cc(C)c(O)c(C)c2)on1", "Percent Effect (%)": 41.8}
{"MOLECULE": "Cc1nc(C)n(CC2CCCCN2CCCS(=O)(=O)N(C)C)n1 (configuration not stated)", "Percent Effect (%)": 4.05}
{"MOLECULE": "CN(CCN1CCCCC1)C(=O)c1cc(CN2CCOCC2)on1", "Percent Effect (%)": -8.25}
{"MOLECULE": "Cc1cc(NC(=O)CN2CCN(c3nccs3)C(C)C2)n(C)n1 (configuration not stated)", "Percent Effect (%)": -4.36}
{"MOLECULE": "O=C(NCC1CC1)C1CN(C(=O)c2cccnc2)CC12CCOCC2 (configuration not stated)", "Percent Effect (%)": 18.6}
{"MOLECULE": "CC(=O)N1CCCN(C(=O)c2csc(-c3ccc(C)cc3C)n2)CC1", "Percent Effect (%)": 30}
{"MOLECULE": "Cc1cc(N2CCCN(C(=O)Cc3ccc(O)c(Cl)c3)CC2)ccn1", "Percent Effect (%)": -10.9}
{"MOLECULE": "COc1ccnc(N2CCN(C(=O)CN3CCCC3=O)CC2)n1", "Percent Effect (%)": 2.97}
{"MOLECULE": "Cc1nc(Nc2ncccn2)cc(C2CCCN2CC(C)C)n1 (configuration not stated)", "Percent Effect (%)": 0.824}
{"MOLECULE": "Cc1nc(-c2ccsc2)ccc1C(=O)NCCC(=O)N1CCCC1", "Percent Effect (%)": -2.2}
{"MOLECULE": "CCn1cc(CN(C)S(=O)(=O)c2ccc(Cl)cc2)cn1", "Percent Effect (%)": 15}
{"MOLECULE": "Cc1ccc([C@@H]2CN(S(=O)(=O)C(C)C)C[C@H]2N(C)C)cc1", "Percent Effect (%)": -1}
{"MOLECULE": "CCN(CC)C(=O)c1ccc(-c2ccsc2)nc1C", "Percent Effect (%)": -1.98}
{"MOLECULE": "CN(C)C(=O)N1C[C@@H]2CCCO[C@@H]2[C@H](N(C)Cc2ccco2)C1", "Percent Effect (%)": -3.94}
{"MOLECULE": "CCc1noc(C)c1C(=O)N1CCCC1Cn1nc(C)cc1C (configuration not stated)", "Percent Effect (%)": -20.2}
{"MOLECULE": "O=C(c1ccncc1)N1CCCn2c(CN3CCCCC3)nnc2C1", "Percent Effect (%)": -3.57}
{"MOLECULE": "CC(NC(=O)CSCC(=O)Nc1ccccc1)c1ccccc1 (configuration not stated)", "Percent Effect (%)": -13.7}
{"MOLECULE": "COc1ccc(-c2nc(CN3CCN(CCO)CC3)co2)cc1", "Percent Effect (%)": 29}
{"MOLECULE": "O=C(Nc1cc(F)ccc1OCC1CCCO1)N1CCCC1 (configuration not stated)", "Percent Effect (%)": -1.89}
{"MOLECULE": "Cc1nc(C)n(C2CCCN(C(=O)c3cc4ccccc4n3C)C2)n1 (configuration not stated)", "Percent Effect (%)": 17.1}

###

Reported Percent Effect values are given for each entry in this list.
# EXPERIMENTAL TARGET: Tyrosyl-tRNA synthetase, putative (Trypanosoma cruzi (strain CL Brener))
# PROTOCOL: Trypanosoma cruzi tyrosyl tRNA synthetase (TcYRS) SOP
# Format: functional
# Design: scale not given: direction of the effect not stated beside the values
# CONDITION CONTEXT: 30 µM

{"COMPOUND": "CC(c1ccc(F)c(F)c1)N1CCN(Cc2nccn2C)CC1 (stereo unspecified)", "Percent Effect / %": -2.44}
{"COMPOUND": "CCc1ncncc1C(=O)N1CCN(Cc2ccco2)CC1", "Percent Effect / %": -11.1}
{"COMPOUND": "Cc1ccc(OCCC(=O)NC2CCc3nc(C)cn3C2)cc1 (stereo unspecified)", "Percent Effect / %": 10.4}
{"COMPOUND": "CCC1=N[C@@]2(CC[C@@H]3CN(CC4CC4)C[C@@H]32)C(=O)N1C", "Percent Effect / %": 15.4}
{"COMPOUND": "CCn1nc(C)c2nnn(CC(=O)Nc3cccc(Cl)c3)c(=O)c21", "Percent Effect / %": 7.69}
{"COMPOUND": "Cc1n[nH]cc1CNc1ccc2c(c1)N(C(=O)OC(C)(C)C)CCC2", "Percent Effect / %": 8.64}
{"COMPOUND": "Cc1cc(C(=O)N2CCN(C(=O)Cc3ccccn3)CC2)c(C)s1", "Percent Effect / %": 7.59}
{"COMPOUND": "CN(C)C(=O)Cc1nc(CN2CCn3c(nnc3C3CC3)C2)cs1", "Percent Effect / %": 15.8}
{"COMPOUND": "CC(=O)N1CCN(Cc2csc(-c3cnn(C)c3)n2)CC1", "Percent Effect / %": 9.76}
{"COMPOUND": "O=C(c1cccs1)N1CCC2(C1)c1ccccc1S(=O)(=O)N2CC1CC1 (stereo unspecified)", "Percent Effect / %": 6.41}
{"COMPOUND": "COc1ccc(F)cc1C(C(=O)O)N1CCSCC1 (stereo unspecified)", "Percent Effect / %": 18.5}
{"COMPOUND": "CNC(=O)[C@H]1C[C@@H]2CN(C(=O)c3cscn3)C[C@@H]2N1S(C)(=O)=O", "Percent Effect / %": -52.5}
{"COMPOUND": "Cn1cccc1C(=O)N1CCC2(CC1)CN(c1cncnc1)C(=O)CO2", "Percent Effect / %": -150}
{"COMPOUND": "CCc1ccc(CN2CC[C@H]3C[C@H](c4nnc(C)[nH]4)O[C@@H]3C2)o1", "Percent Effect / %": -1.24}
{"COMPOUND": "Cc1ccn(-c2ccc(C(=O)N3CCCC(C(N)=O)C3)cc2)n1 (stereo unspecified)", "Percent Effect / %": 8.86}
{"COMPOUND": "c1cnc(N2CCOC3(CCN(CC4CCCCC4)CC3)C2)nc1", "Percent Effect / %": 11.5}
{"COMPOUND": "COc1cccc(OCC(=O)NS(=O)(=O)c2ccc(C)s2)c1", "Percent Effect / %": 16.5}
{"COMPOUND": "Cn1cc(CN2CCC3(CCCN(Cc4ccccn4)C3)CC2)cn1", "Percent Effect / %": 1.24}
{"COMPOUND": "Cc1nc(COC[C@@H]2CC[C@H]3[C@H](CCN3c3ncccn3)O2)cs1", "Percent Effect / %": 1.28}
{"COMPOUND": "O=c1cc(Cn2ccnc2)nc2n1CCCN(Cc1ccsc1)C2", "Percent Effect / %": 5.13}
{"COMPOUND": "c1ccc(COC2CCN(c3cncc(-n4cccn4)n3)CC2)cc1", "Percent Effect / %": 13.4}
{"COMPOUND": "c1cnn(C2CN(Cc3nc(-c4ccsc4)no3)C2)c1", "Percent Effect / %": 12.2}
{"COMPOUND": "NCc1cnn(-c2ccccc2C(=O)NCc2ccncc2)c1", "Percent Effect / %": 11.7}
{"COMPOUND": "Cc1cnn(CC(C)NCc2ccc(OCc3ccncc3)cc2)c1 (stereo unspecified)", "Percent Effect / %": 5.06}
{"COMPOUND": "COc1cccc(CN(C)C(=O)CN2CC(n3nc(C)cc3C)C2)c1", "Percent Effect / %": 39}
{"COMPOUND": "CC(=O)N1CC[C@H]2OCC[C@@]2(C(=O)NCc2ccco2)C1", "Percent Effect / %": 5}
{"COMPOUND": "CCC(O)CNC(=O)C1(N(C)Cc2ccccc2)Cc2ccccc2C1 (stereo unspecified)", "Percent Effect / %": 8.64}
{"COMPOUND": "CC(C)c1nc2n(n1)CC(NCc1nnc(C(C)C)o1)CC2 (stereo unspecified)", "Percent Effect / %": 18.5}
{"COMPOUND": "CC(C)OCCCNC(=O)c1ccc(-c2ccco2)[nH]c1=O", "Percent Effect / %": 11.1}
{"COMPOUND": "Cc1nc(C)n(CC2CCCN(Cc3nnc(C(C)(C)C)o3)C2)n1 (stereo unspecified)", "Percent Effect / %": 5.2}
{"COMPOUND": "C[S+]([O-])CCCNC(=O)c1cc(Br)c2c(c1)OCCO2 (stereo unspecified)", "Percent Effect / %": 13.6}
{"COMPOUND": "O=C(NCC1CC1)[C@@H]1CCO[C@@H]2CCN(Cc3ccco3)C[C@H]21", "Percent Effect / %": -10}
{"COMPOUND": "CCN(C(=O)CCCOc1ccccc1F)c1ccncc1", "Percent Effect / %": 7.79}
{"COMPOUND": "COC(=O)CCc1c(C)nn(-c2nc(C)cc(=O)[nH]2)c1C", "Percent Effect / %": 11.5}
{"COMPOUND": "Cc1cnn(C2CN(CC(=O)NCc3ccccn3)C2)c1", "Percent Effect / %": 25.9}
{"COMPOUND": "CC(CNC(=O)Nc1ccc(N(C)C)nc1)Cn1cccn1 (stereo unspecified)", "Percent Effect / %": 2.56}
{"COMPOUND": "CC(C)C(Sc1nnnn1-c1ccccc1)C(=O)NCc1cccnc1 (stereo unspecified)", "Percent Effect / %": 9.76}
{"COMPOUND": "CC(C)NC(=O)N1CCN(S(=O)(=O)C2CC2)CC2(CNC(=O)C2)C1 (stereo unspecified)", "Percent Effect / %": 11.5}
{"COMPOUND": "CC(=O)N1CCCN(C(=O)c2csc(-c3ccc(C)cc3C)n2)CC1", "Percent Effect / %": 23.2}
{"COMPOUND": "COc1cc(CN(C)C(=O)NCCC2CCCO2)ccc1SC (stereo unspecified)", "Percent Effect / %": 3.66}
{"COMPOUND": "CN(C)C(=O)C1(CCCc2ccncc2)CCCN1 (stereo unspecified)", "Percent Effect / %": 14.3}
{"COMPOUND": "CC(C)Cc1noc(CN2CCN(c3nccs3)CC2)n1", "Percent Effect / %": 7.32}
{"COMPOUND": "O=C(NCc1cccs1)C1CN(C(=O)c2cccs2)CC12CCOCC2 (stereo unspecified)", "Percent Effect / %": -312}
{"COMPOUND": "Cc1n[nH]c(C)c1C1COCCN1C(=O)Cc1cccc(F)c1 (stereo unspecified)", "Percent Effect / %": -2.5}
{"COMPOUND": "c1cnc(N2CCC3(COCc4cnc(-c5cccnc5)nc43)C2)nc1 (stereo unspecified)", "Percent Effect / %": -10.3}
{"COMPOUND": "COc1ccc(C2SC(C)=Nc3c2c(=O)[nH]n3C2CCCCC2)cc1O (stereo unspecified)", "Percent Effect / %": 48.7}
